Test system: U2OS
protocol_notes: Multiplex assay against U2OS
Assay type: toxicity, cell-based
condition_parameters: human, 48 h, 10 µM, compound concentration 10 uM, replicate 1
measurement_name: Population Pyknosed Nuclei (%)
Note: unit % is implicit; provide only the numeric part.

Cc1noc(-c2ccc(-c3ccc(CC(=O)O)cc3)cc2)c1NC(=O)O[C@H](C)c1ccccc1Cl = 8

Prompt: Reported Population Pyknosed Nuclei (%) for U2OS, given CC[C@@H](C)Nc1nc(C)nc2c(-c3ccc(OC)nc3C)c(C)nn12 [PEXACERFONT] ?
Response: 8

Prompt: Requested read-out Population Pyknosed Nuclei (%), target or system U2OS, entry COc1cccc2c1c(NS(=O)(=O)c1ccc(Cl)s1)nn2Cc1cccc(CNC(=O)C(C)(C)O)c1
Response: 8
